Exercise: state measured EC50 for each of the compounds provided.
- Tested on: Plasmodium falciparum
- assay.comment: NOVARTIS: Inhibition of Plasmodium falciparum 3D7 (drug-susceptible) proliferation in erythrocyte-based infection assay
- Assay type: functional, organism-based
- condition.summary: Plasmodium falciparum, 3D7
Give bare numbers, in nM.

Hi team, please reply with EC50 for each item in this list.
1. CC(C)(C)NCC(O)Cn1c2ccc(I)cc2c2cc(I)ccc21 (stereo unspecified)
2. CCN(CC)Cc1cc(Nc2nc3ccccc3[nH]2)cc(CN(CC)CC)c1O
3. C=CCSc1oc(-c2ccco2)nc1[P+](c1ccccc1)(c1ccccc1)c1ccccc1
4. Oc1c2c(nc3cc(-c4ccc(Br)cc4)nn13)CCCC2
5. Cc1ccc2cc3c(N)c4cccc(C)c4nc3nc2c1
6. O=C(NCCCN1CCOCC1)c1c[nH]c2ccc(S(=O)(=O)N3CCc4ccccc43)cc2c1=O
7. CN(C)c1cc[n+](Cc2c(Cl)cccc2Cl)cc1
8. OC(CN1CCN(c2ccnc3cc(Cl)ccc23)CC1)CN1CCN(c2ccnc3cc(Cl)ccc23)CC1

[608, 864, 310, 522, 115, 610, 140, 85.6]

Please go through the list and note EC50 for each compound.
1. CC(NCc1cc(-c2ccccc2)ccc1O)c1cccc2ccccc12 (stereo unspecified)
2. COc1cc(NC2=CC(=O)C(=O)c3ccccc32)c(OC)cc1Cl
3. C=C[C@H]1CN2CC[C@H]1C[C@@H]2[C@@H](OC(C)=O)c1ccnc2ccccc12
4. CCOC(=O)c1nnn(-c2nonc2N)c1-c1ccc(OC)c(OC)c1

[1210, 294, 666, 513]

Could you report EC50 for every entry in the following list?
1. CCN1C(=Cc2sc3ccccc3[n+]2CC)[Se]c2ccccc21
2. CCN1CCN(c2cc(C)c3cc(NC(=O)c4ccc(F)c([N+](=O)[O-])c4)ccc3n2)CC1
3. COc1ccc(C2CC(=O)C3=C(C2)NC(C)=C(C(=O)OC(C)C)C3c2cccc(C)c2)cc1OC (stereo unspecified)
4. Cc1ccc(C(=O)C(C)[n+]2ccc(N(C)C)cc2)cc1 (stereo unspecified)
5. Cc1cc(F)ccc1NC(=O)C(C)n1c2ccccc2c2nc(=O)cc(C)n21 (stereo unspecified)
6. CC1=C(C(=O)Nc2ccc(C)cc2C)C(c2cc(Br)ccc2F)n2ncc(C(=O)Nc3ccc(C)cc3)c2N1 (stereo unspecified)
7. COc1ccc(CNC(=O)C2CNCC2c2ccc(C(F)(F)F)cc2)cc1 (stereo unspecified)
8. CCN(CC)CCNc1ccnc2cc(Cl)ccc12

1. 230
2. 1160
3. 82.1
4. 438
5. 283
6. 2550
7. 165
8. 7.16

----------
- assay.comment: NOVARTIS: Cytotoxicity against human hepatocellular carcinoma cell line (Huh7)
- Assay type: toxicity, cell-based, Huh-7
- condition.summary: Huh7 cells (hepatocellular carcinoma cell line)
measured.quantity: log10 CC50 (log10 of the value in µM)
log10 CC50, µM

Sample records with log10 CC50:
[
  {
    "molecule": "c1ccc(-c2ccccc2OCCNCCN2CCOCC2)cc1",
    "recorded.number": 1.67
  },
  {
    "molecule": "CCc1ccc(C(=O)C[n+]2cc(-c3ccc(C)cc3)n3c2CCC3)cc1",
    "recorded.number": 1.51
  },
  {
    "molecule": "CN(C)c1ccc(-c2nc(-c3ccc(-c4[nH]c(-c5ccc(N(C)C)cc5)nc4-c4ccccc4)cc3)c(-c3ccccc3)[nH]2)cc1",
    "recorded.number": 1.84
  },
  {
    "molecule": "CC(C)(C)CC(C)(C)Nc1c(-c2ccccc2OC(=O)C(c2ccccc2)c2ccccc2)nc2ccccn12",
    "recorded.number": 0.33
  },
  {
    "molecule": "Cc1noc(C)c1S(=O)(=O)N(CC(C)C)C(C(=O)NC(CN1CCCC1)c1ccccc1)c1ccccc1 (configuration not stated)",
    "recorded.number": 0.45
  },
  {
    "molecule": "CC(C)CCN1C(=O)N(CCN(C)C)C(=O)C12CCN(Cc1ccc(O)cc1)CC2",
    "recorded.number": 1.84
  }
]

Next up:
GET /values?readout=log10 CC50&item= CCC(C)(C)c1ccc(Oc2ccc(NC(=O)c3ccc([N+](=O)[O-])o3)cc2)cc1
1.76

----------
- Test system: Plasmodium falciparum
- assay.comment: NOVARTIS: Inhibition of Plasmodium falciparum 3D7 (drug-susceptible) proliferation in erythrocyte-based infection assay
- Type: functional, organism-based
- condition.summary: Plasmodium falciparum, 3D7
Field: EC50. Provide a value for each of the compounds that follow.

[
  {
    "compound": "O=C(CC1SC(=Nc2ccccc2)NC1=O)Nc1cc(Cl)ccc1Cl (stereo not drawn)",
    "EC50": "> 12.5 µM"
  },
  {
    "compound": "CCOCCCNC(=O)C1CCCN(S(=O)(=O)c2ccc(C)cc2)C1 (stereo not drawn)",
    "EC50": "> 0.659 µM"
  }
]

Look up EC50: CCCC(=O)O[C@]1(C(=O)CCl)[C@@H](C)C[C@H]2[C@@H]3CCC4=CC(=O)C=C[C@]4(C)[C@@]3(F)C(=O)C[C@@]21C
> 12.5 µM

----------
Answer each item with its documented pEC50.
- System: Plasmodium falciparum
- assay.comment: NOVARTIS: Inhibition of Plasmodium falciparum W2 (drug-resistant) proliferation in erythrocyte-based infection assay
- Type: functional, organism-based
- condition.summary: Plasmodium falciparum, W2; read-out: EC50
Answers are plain numbers, as −log10 of the molar value.

Recorded results for 6 compounds are shown here.
[
  {
    "compound": "CC[N+]1(CCOc2ccc(C34CC5CC(CC(C5)C3)C4)cc2)CCCCC1",
    "target.of.assay": "Plasmodium falciparum",
    "pEC50": 6.13
  },
  {
    "compound": "COc1ccccc1C=CC1=NC(=Cc2ccc(SC)cc2)C(=O)O1",
    "target.of.assay": "Plasmodium falciparum",
    "pEC50": 5.60
  },
  {
    "compound": "C=C[C@H]1CN2CC[C@H]1C[C@@H]2[C@@H](O)c1ccnc2ccc(OC)cc12",
    "target.of.assay": "Plasmodium falciparum",
    "pEC50": 7.45
  },
  {
    "compound": "COC(=O)[C@@H]1C[C@@H](NC(=O)c2ccc(OC)cc2OC)CN1C/C(C)=C/c1ccccc1",
    "target.of.assay": "Plasmodium falciparum",
    "pEC50": 6.09
  },
  {
    "compound": "CCN(CC)CCNc1nc2cc(OC)c(OC)cc2c2nc(-c3ccccc3)nn12",
    "target.of.assay": "Plasmodium falciparum",
    "pEC50": 5.74
  },
  {
    "compound": "CCCCN(CCCC)c1nc(=O)cc(-c2ccc(Cl)cc2)o1",
    "target.of.assay": "Plasmodium falciparum",
    "pEC50": 6.20
  }
]

Provide pEC50 values for the following items, in order.
1. CCCN1CCc2c(sc3nc(SCC(=O)c4ccccc4)nc(N)c23)C1
2. CCCOC(=O)C1=C(C)NC2=C(C(=O)CC(c3ccc(OC)cc3)C2)C1c1ccc([N+](=O)[O-])cc1 (stereo not given)
3. CC1=C(C(=O)OCCOc2ccccc2)C(c2cccc([N+](=O)[O-])c2)C2=C(CCCC2=O)N1 (stereo not given)
4. CN(CCCNc1ccnc2cc(Cl)ccc12)C(=O)c1ccc(Br)cc1
5. CCCOC(=O)C1=C(C)NC2=C(C(=O)CC(c3ccc(OC)c(OC)c3)C2)C1c1cccc([N+](=O)[O-])c1 (stereo not given)
6. FC(F)(F)c1cccc(NC(=S)N2CCCC2c2ccccc2Cl)c1 (stereo not given)
7. CN1CCN=C1c1ccc(NC(=O)c2ccc(C(=O)Nc3ccc(C4=NCCN4C)cc3)c([N+](=O)[O-])c2)cc1

1. 6.00
2. 7.29
3. 5.74
4. 7.87
5. 7.44
6. 6.73
7. 8.04

For each of the compounds below, state pEC50.
1. CN(C)c1ccc(/C=C/C(=O)NC(=O)c2ccccc2O)cc1
2. COc1ccc(Cn2cccc(C(=O)Nc3ccc(OC)cc3)c2=O)cc1
3. O=C(CCn1c(=O)[nH]c2ccccc21)NCC1Cc2cccc(-c3ccncc3)c2O1 (stereo not given)
4. N=c1c2c(n(CCc3ccccc3)c3c1CCC3)CCCC2

1. 7.12
2. 5.51
3. 5.53
4. 6.63

----------
- assay.comment: NOVARTIS: Cytotoxicity against human hepatocellular carcinoma cell line (Huh7)
- Format: toxicity, cell-based, Huh-7
- condition.summary: Huh7 cells (hepatocellular carcinoma cell line)
For each record, write down the corresponding CC50.

[
  {
    "smiles": "Cc1cccc(Nc2c3c(c(C#N)c4nc5ccccc5n24)CCC3)c1",
    "CC50": "> 100 µM"
  },
  {
    "smiles": "COc1ccc2nc(C)cc(Nc3ccc(Br)cc3)c2c1",
    "CC50": "19.7 µM"
  },
  {
    "smiles": "O=C(COc1ccc(Cl)cc1)Nc1nnc(-c2ccc3c(c2)OCO3)s1",
    "CC50": "> 13.8 µM"
  }
]

Your task in this section: give CC50 for each listed record.
1. CC(=O)c1ccc2c3c(onc13)-c1ccccc1C2=O
2. Cc1ccc(-c2c3c4n(c(-c5ccc(Cl)cc5)cn4c2C(=O)Nc2ccccc2Cl)CCCC3)cc1

1. > 100 µM
2. > 100 µM

Hey, just so you know, these numbers are from ChEMBL document CHEMBL1156829.
